target_under_test: T1, human APJ receptor (human, UniProt P35414 1-380)
T1 sequence (looked up): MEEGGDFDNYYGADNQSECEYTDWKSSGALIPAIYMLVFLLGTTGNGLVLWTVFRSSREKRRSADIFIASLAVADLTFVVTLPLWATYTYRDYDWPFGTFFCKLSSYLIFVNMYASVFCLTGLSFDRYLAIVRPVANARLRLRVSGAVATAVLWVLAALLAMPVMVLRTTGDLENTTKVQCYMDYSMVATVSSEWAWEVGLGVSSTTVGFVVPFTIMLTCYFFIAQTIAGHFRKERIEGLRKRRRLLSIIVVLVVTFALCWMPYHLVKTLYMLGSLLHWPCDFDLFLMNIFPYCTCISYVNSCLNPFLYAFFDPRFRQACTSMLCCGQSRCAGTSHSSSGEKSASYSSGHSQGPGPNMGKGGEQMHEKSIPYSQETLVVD
method_notes: cell-based or functional assay
Starred links: 1 amine or outer side, 2 acyl side, 3 side chain; linkers in the order of their positions; H or OH if unused. Non-standard residues stand in square brackets, D forms with d. *: point of attachment. Oic = O=C(O)[C@@H]1C[C@@H]2CCCC[C@@H]2N1; Phe(4-Cl) = N[C@@H](Cc1ccc(Cl)cc1)C(=O)O; γGlu = O=C(O)[C@H](CCC(=O)[*:2])N[*:1]; 2Nal = N[C@@H](Cc1ccc2ccccc2c1)C(=O)O; Tridecanoyl = CCCCCCCCCCCCC(=O)*; hArg = N=C(N)NCCCC[C@H](N)C(=O)O; Cha = N[C@@H](CC1CCCCC1)C(=O)O; Tle = CC(C)(C)[C@H](N)C(=O)O; Nle = CCCC[C@H](N)C(=O)O; AEEA = NCCOCCOCC(=O)O
In this section, each of the binders is paired with its reported EC50 Human APJ Receptor (GTPγS assay).
Note: unit nM is implicit; provide only the numeric part.

Use the examples below as a reference point.
binder	unit_label	EC50 Human APJ Receptor (GTPγS assay)
Tridecanoyl-[γGlu][AEEA][AEEA][dQ][hArg]P[dR][Cha]SHK[Tle][Oic][Nle]P[Phe(4-Cl)]-OH [Apelin polypeptide SEQ ID NO: 371]	nM	6.92
Tridecanoyl-[γGlu][AEEA][AEEA][dQ][hArg]P[dR][Cha]SHKG[Oic][Nle]P[2Nal]-OH [Apelin polypeptide SEQ ID NO: 368]	nM	32.3

As a next step, examine the binder that follows.
Entry under review: XXXQRPRLXHKGPXPF ({TDA}[AC4Abu][Aeea][Aeea]QRP[NMeArg]L[Pra]HKGP[Nle]P[4-Cl-F]{COOH}) [Apelin polypeptide SEQ ID NO: 450] . Reported EC50 Human APJ Receptor (GTPγS assay)?
0.132
